- RUN_DESCRIPTION: qHTS assay for small molecule agonists of the antioxidant response element (ARE) signaling pathway - cell viability counter screen (AID 743203); note: nearly all actives have a fitted effect of over 55% in size
- APPLIED_CONDITIONS: ARE-bla HepG2 viability, CellTiter-Glo luminescence, 16 h; series mostly up to 73.3 µM
Inconclusive results are not listed. Activity calls are given as the source filed them. Calls come from the whole dose curve.
A correct response names exactly one class from 1 (yes) for active, 0 (no) for inactive

Past entries and their recorded results:
c1ccc2n[nH]nc2c1 = 0 (no)
CC(=O)CC(C)=O = 0 (no)
CC(N)=O = 0 (no)
CC(=O)N[C@@H](CS)C(=O)O = 0 (no)
O=C(Nc1ccccc1SSc1ccccc1NC(=O)c1ccccc1)c1ccccc1 = 0 (no)

Record lookup: outcome of this test for CCC(C)(C)C(=O)O[C@H]1C[C@@H](C)C=C2C=C[C@H](C)[C@H](CC[C@@H]3C[C@@H](O)CC(=O)O3)[C@H]21 ?
0 (no)

Record lookup: outcome of this test for O=Nc1ccc(Nc2ccccc2)cc1 ?
0 (no)

Record lookup: outcome of this test for CC1COc2c(N3CCN(C)CC3)c(F)cc3c(=O)c(C(=O)O)cn1c23 (stereo not drawn) ?
0 (no)

Record lookup: outcome of this test for OCCN1CCNCC1 ?
0 (no)

Record lookup: outcome of this test for CCOc1ccccc1C(N)=O ?
0 (no)

Record lookup: outcome of this test for O ?
0 (no)

Record lookup: outcome of this test for CCN1CCCC1CNC(=O)c1cc(S(=O)(=O)CC)c(N)cc1OC (stereo not drawn) ?
0 (no)

Record lookup: outcome of this test for C#CC(C)(CC)OC(=O)c1ccccc1C(=O)O (stereo not drawn) ?
0 (no)

Record lookup: outcome of this test for CCCCCC(=O)O[C@]1(C(C)=O)CC[C@H]2[C@@H]3CCC4=CC(=O)CC[C@]4(C)[C@H]3CC[C@@]21C ?
1 (yes)

Record lookup: outcome of this test for CCCN[C@H]1CCc2nc(N)sc2C1 ?
0 (no)

Record lookup: outcome of this test for Cc1cc(C2(c3cc(C)c(O)cc3C)OS(=O)(=O)c3ccccc32)c(C)cc1O ?
0 (no)

Record lookup: outcome of this test for OCCOCCN1CCN(C(c2ccccc2)c2ccc(Cl)cc2)CC1 (stereo not drawn) ?
0 (no)

Record lookup: outcome of this test for COC(=O)[C@H]1[C@H]2C[C@@H]3c4[nH]c5cc(OC)ccc5c4CCN3C[C@H]2C[C@@H](OC(=O)c2cc(OC)c(OC)c(OC)c2)[C@@H]1OC ?
0 (no)

Record lookup: outcome of this test for O=C(Cl)c1cccc(C(=O)Cl)c1 ?
0 (no)

Record lookup: outcome of this test for CCCCN(CCO)CCCC ?
0 (no)
